Target: GPR35 (Homo sapiens, UniProt Q9HC97)
Sequence (Q9HC97 whole entry): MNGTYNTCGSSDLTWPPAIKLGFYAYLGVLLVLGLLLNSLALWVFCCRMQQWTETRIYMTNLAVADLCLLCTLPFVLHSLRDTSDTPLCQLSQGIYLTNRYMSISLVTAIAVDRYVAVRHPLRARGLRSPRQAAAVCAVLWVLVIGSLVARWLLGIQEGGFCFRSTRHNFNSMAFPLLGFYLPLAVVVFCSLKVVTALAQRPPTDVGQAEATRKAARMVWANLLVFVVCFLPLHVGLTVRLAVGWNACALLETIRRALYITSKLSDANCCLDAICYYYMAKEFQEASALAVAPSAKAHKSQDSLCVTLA
Experiment: cellular GPR35 phospho-ERK HTRF assay (inhibition of lodoxamide-induced phospho-ERK signal)
Details: GPR35-CHO-K1-mt aequorin-Gα16 cell line; agonist lodoxamide at EC80; read-out: Activity Group (IC50, inhibition of GPR35 agonist-induced phospho-ERK signal)
pIC50: −log10 of the molar value.
# pIC50 annotations

- compound: "Cc1ncc(-c2nc(C(=O)Nc3ccc(COCc4ccccc4)cc3)cs2)cc1C(=O)O [Example 50]"
  pIC50: "5.00 to 6.00"
- compound: "O=C(Nc1ccc(OCCc2ccccc2)nc1)c1cccc(-c2cccc(C(=O)O)n2)c1 [Example 46]"
  pIC50: "5.00 to 6.00"
- compound: "Cc1ncc(-c2ccc(F)c(C(=O)Nc3ccc(COCc4ccccc4)cc3)c2F)cc1C(=O)O [Example 87]"
  pIC50: "5.00 to 6.00"
- compound: "O=C(Nc1ccc(OCCc2ccccc2)cc1)c1cccc(-c2cnc(CN3CCOCC3)c(C(=O)O)c2)c1 [Example 32]"
  pIC50: "5.00 to 6.00"

API: the following record is the query input.
Given item Cc1ncc(-c2cc(C(=O)Nc3ccc(OCCc4ccccc4)cc3)cnn2)cc1C(=O)O [Example 71] , the value recorded as its pIC50 is 5.00 to 6.00

The origin of these recorded values is patent US20260216198A1.
